# protocol.notes: A CellTox Green Cytotoxicity Assay to monitor cytotoxicity in HepG2 cells - 0 hour (AID 1224882); further: nearly all actives have a fitted effect of over 35% in size
# condition.context: CellTox Green fluorescence; series mostly up to 76.8 µM
Activity calls are given as the source filed them. The call rests on the fitted dose curve; in most records, active means well fitted activation curve with a large enough effect in the repeat runs; inconclusive means weak or mixed curves; inactive means flat fitted curve, though single readings scatter.
Response enum: 1 = active, -1 = inactive

**Q:** What did this assay record as the result for COc1nc(C)nc(NC(=O)NS(=O)(=O)c2ccccc2Cl)n1 ?
**A:** -1

**Q:** What did this assay record as the result for Cc1ccc([N+](=O)[O-])[c]2c1[O][Hg]2 ?
**A:** -1

**Q:** What did this assay record as the result for COc1ccc(Cc2nccc3cc(OC)c(OC)cc23)cc1OC ?
**A:** -1

**Q:** What did this assay record as the result for S=C=NCCc1ccccc1 ?
**A:** -1

**Q:** What did this assay record as the result for CCCCN(CCCC)C(=S)S ?
**A:** -1

**Q:** What did this assay record as the result for Cc1ccn2nc(S(=O)(=O)Nc3c(F)cccc3F)nc2n1 ?
**A:** -1

**Q:** What did this assay record as the result for O=[N+]([O-])c1ccc(Cl)c(Cl)c1Cl ?
**A:** -1

**Q:** What did this assay record as the result for C=Cc1cccc(CCl)c1 ?
**A:** -1

**Q:** What did this assay record as the result for COP(=S)(OC)Oc1nc(Cl)c(Cl)cc1Cl ?
**A:** -1

**Q:** What did this assay record as the result for CCC[CH2][Sn]([CH2]CCC)([O]C(C)=O)[O]C(C)=O ?
**A:** -1

**Q:** What did this assay record as the result for CCC[CH2][Sn]([CH2]CCC)([CH2]CCC)[CH2]CCC ?
**A:** 1

**Q:** What did this assay record as the result for COc1ccc2c(c1OC)C(=O)O[C@@H]2[C@H]1c2cc3c(cc2CCN1C)OCO3 ?
**A:** -1

----------
# protocol.notes: qHTS assay to identify small molecule antagonists of the thyroid receptor (TR) signaling pathway - cell viability counter screen (AID 743064); further: nearly all actives have a fitted effect of over 50% in size; further: potency means the concentration at half of the fitted maximal effect
# condition.context: GH3.TRE-Luc viability, CellTiter-Fluor, 24 h; series mostly up to 70.3 µM
# From the text: National Center for Advancing Translational Sciences [NCATS] NIH Chemical Genomics Center [NCGC] U.S. Environmental Protection Agency [EPA] National Institutes of Environmental Health Sciences [NIEHS] National Toxicology Program [NTP] U.S. Food and Drug Administration [FDA] Thyroid receptor (TR), a nuclear hormone receptor, plays an important role in development, proliferation, differentiation, metabolism, brain function, and cardiovascular system. […]
Records with an inconclusive call do not appear. Activity calls are given as the source filed them. The call rests on the fitted dose curve; in most records, active means well fitted cell-killing curve with a large enough effect in the repeat runs; inconclusive means weak or mixed curves, or effect the other way; inactive means no such curve, though single readings can be large or run the other way.
measured.property: Potency

Consider the following illustrative entries.
>  <compound>
CN1[C@@H]2CC[C@H]1CC(O)C2 (stereo partly specified)

>  <measured.property>
Potency

>  <assay.value>
inactive

$$$$
>  <compound>
COc1c2c(cc3c1OCO3)CCN(C)C2

>  <measured.property>
Potency

>  <assay.value>
inactive

$$$$
>  <compound>
CN1CCc2cc(Cl)c(O)cc2[C@H]2c3ccccc3CC[C@@H]21

>  <measured.property>
Potency

>  <assay.value>
13.3 µM (active)

$$$$
>  <compound>
CC(=O)[O][Sn]([c]1ccccc1)([c]1ccccc1)[c]1ccccc1

>  <measured.property>
Potency

>  <assay.value>
0.172 µM (active)

$$$$
>  <compound>
N#Cc1sc2c(=O)c3ccccc3c(=O)c=2sc1C#N

>  <measured.property>
Potency

>  <assay.value>
24.3 µM (active)

$$$$
>  <compound>
CCOP(=O)(OCC)Oc1nc(Cl)c(Cl)cc1Cl

>  <measured.property>
Potency

>  <assay.value>
60.8 µM (active)

$$$$
>  <compound>
C=C(C)C(=O)[O][Sn]([CH2]CCC)([CH2]CCC)[CH2]CCC

>  <measured.property>
Potency

>  <assay.value>
0.433 µM (active)

$$$$
>  <compound>
C=CC(=C)C

>  <measured.property>
Potency

>  <assay.value>
inactive

$$$$

**Q:** Query: Potency; subject: CCC(C)Br (stereo unspecified)
**A:** inactive

**Q:** Query: Potency; subject: O=C(NC(=O)c1c(F)cccc1F)Nc1ccc(Oc2ccc(C(F)(F)F)cc2Cl)cc1F
**A:** 43.3 µM (active)

**Q:** Query: Potency; subject: COc1ccc(Cc2nccc3cc(OC)c(OC)cc23)cc1OC
**A:** inactive

----------
# protocol.notes: A CellTox Green Cytotoxicity Assay to monitor cytotoxicity in HepG2 cells - 8 hour (AID 1224890); further: nearly all actives have a fitted effect of over 45% in size
# condition.context: CellTox Green fluorescence; series mostly up to 76.8 µM
Inconclusive results are not listed. Activity calls are given as the source filed them. Calls come from the whole dose curve; as a rule, active = well fitted activation curve with a large enough effect in the repeat runs; inconclusive = weak or mixed curves; inactive = flat fitted curve, though single readings scatter.
Response enum: Yes for active, No for inactive

**Q:** What did this assay record as the result for C[C@]12C/C(=C/O)C(=O)C[C@@H]1CC[C@@H]1[C@@H]2CC[C@@]2(C)[C@H]1CC[C@]2(C)O ?
**A:** No

**Q:** What did this assay record as the result for Nc1cc(Cl)ccc1Cl ?
**A:** No

**Q:** What did this assay record as the result for CC(=O)[O-].CC(=O)[O-].O.O.O.[Pb+2] ?
**A:** No

**Q:** What did this assay record as the result for ClSC(Cl)(Cl)Cl ?
**A:** No

**Q:** What did this assay record as the result for COc1ccc(Cc2nccc3cc(OC)c(OC)cc23)cc1OC ?
**A:** No

**Q:** What did this assay record as the result for O=c1c2ccccc2c(=O)c2c1cc(Cl)c1[nH]c3c([nH]c12)c(Cl)cc1c(=O)c2ccccc2c(=O)c13 ?
**A:** No

**Q:** What did this assay record as the result for C[C@]12Cc3cn[nH]c3C[C@@H]1CC[C@@H]1[C@@H]2CC[C@@]2(C)[C@H]1CC[C@]2(C)O ?
**A:** No

**Q:** What did this assay record as the result for [Cl-].[Cl-].[Cl-].[Yb+3] ?
**A:** No

**Q:** What did this assay record as the result for COc1cnc(OC)n2nc(NS(=O)(=O)c3c(OCC(F)F)cccc3C(F)(F)F)nc12 ?
**A:** No

**Q:** What did this assay record as the result for CCOP(=S)(OCC)Oc1cc(C)nc(N(CC)CC)n1 ?
**A:** No

**Q:** What did this assay record as the result for CC(C)C(Br)C(=O)NC(N)=O (stereo not given) ?
**A:** No

**Q:** What did this assay record as the result for CCC(C)Br (stereo not given) ?
**A:** No

**Q:** What did this assay record as the result for c1ccc(Nc2ccc(Nc3ccccc3)cc2)cc1 ?
**A:** No

**Q:** What did this assay record as the result for COC(=O)/C=C(\C)OP(=O)(OC)OC ?
**A:** No

**Q:** What did this assay record as the result for CN1C(=O)[C@@H](NC(=O)c2cc3ccccc3[nH]2)N=C(c2ccccc2)c2ccccc21 ?
**A:** No

**Q:** What did this assay record as the result for Clc1ccc(C2(Cn3cncn3)OCCO2)c(Cl)c1 ?
**A:** No

**Q:** What did this assay record as the result for CCCCN(CCCC)C(=S)S ?
**A:** No

**Q:** What did this assay record as the result for CC(Cc1ccc2c(c1)OCO2)NO (stereo not given) ?
**A:** No

**Q:** What did this assay record as the result for CC(Cc1ccccc1)N(C)Cc1ccco1 (stereo not given) ?
**A:** No

**Q:** What did this assay record as the result for Clc1ccc(C(Cl)(Cl)Cl)cc1Cl ?
**A:** Yes

**Q:** What did this assay record as the result for C=Cc1cccc(CCl)c1 ?
**A:** No

**Q:** What did this assay record as the result for CCN(CC)CCN1C(=O)CN=C(c2ccccc2F)c2cc(Cl)ccc21 ?
**A:** No

**Q:** What did this assay record as the result for CCCCn1cc[n+](C)c1 (tested in a mixture with another compound) ?
**A:** No

**Q:** What did this assay record as the result for O=C(O)CCCCCCNC1c2ccccc2CCc2ccccc21 ?
**A:** No

**Q:** What did this assay record as the result for O=S1OCC2C(CO1)C1(Cl)C(Cl)=C(Cl)C2(Cl)C1(Cl)Cl (stereo not given) ?
**A:** Yes

**Q:** What did this assay record as the result for CCC1(CC)C(=O)N=C(O)NC1=O ?
**A:** No

**Q:** What did this assay record as the result for ClC1=C(Cl)[C@]2(Cl)[C@H]3[C@H]([C@@H]4C=C[C@H]3C4)[C@@]1(Cl)C2(Cl)Cl ?
**A:** Yes

**Q:** What did this assay record as the result for O=[N+]([O-])c1ccc(Cl)c(Cl)c1Cl ?
**A:** No

**Q:** What did this assay record as the result for C[C@H]1[C@H](c2ccc(Cl)cc2)SC(=O)N1C(=O)NC1CCCCC1 ?
**A:** No

**Q:** What did this assay record as the result for O=NN(CCO)CCO ?
**A:** No

**Q:** What did this assay record as the result for ClC1(Cl)C2(Cl)C3(Cl)C4(Cl)C(Cl)(Cl)C5(Cl)C3(Cl)C1(Cl)C5(Cl)C24Cl (stereo not given) ?
**A:** No

**Q:** What did this assay record as the result for COC(=O)C(C)N(C(=O)c1ccco1)c1c(C)cccc1C (stereo not given) ?
**A:** No

**Q:** What did this assay record as the result for C#CCO ?
**A:** No

**Q:** What did this assay record as the result for O=[N+]([O-])c1cc(C(F)(F)F)c(Cl)c([N+](=O)[O-])c1Nc1ncc(C(F)(F)F)cc1Cl ?
**A:** No

**Q:** What did this assay record as the result for [C-]1=CC=CC1.[Cl][Zr+2][Cl].c1cc[cH-]c1 ?
**A:** No

**Q:** What did this assay record as the result for CCCCC/C=C\C/C=C\C/C=C\C/C=C\CCCC(=O)NCC(=O)O ?
**A:** No

**Q:** What did this assay record as the result for CCCCC(CC)COC(=O)OOC(C)(C)C (stereo not given) ?
**A:** No

**Q:** What did this assay record as the result for CN(C)c1ccc(N)cc1 ?
**A:** No

**Q:** What did this assay record as the result for O=C(Cl)c1ccccc1F ?
**A:** No

**Q:** What did this assay record as the result for O=c1[nH]c(Cl)c(Cl)cc1Cl ?
**A:** No

**Q:** What did this assay record as the result for CC(C)C(Nc1ccc(C(F)(F)F)cc1Cl)C(=O)OC(C#N)c1cccc(Oc2ccccc2)c1 (stereo not given) ?
**A:** No

**Q:** What did this assay record as the result for N#CC(C#N)=NNc1cccc(Cl)c1 ?
**A:** No

**Q:** What did this assay record as the result for Cc1cnc2c(C(=O)O)c(Cl)ccc2c1 ?
**A:** No

**Q:** What did this assay record as the result for CC1CCCC1 ?
**A:** No

**Q:** What did this assay record as the result for Clc1ccc(C(c2ccc(Cl)cc2)C(Cl)Cl)cc1 ?
**A:** No

Origin of values: PubChem BioAssay (Tox21)
